The measured values listed here are drawn from patent US10266560B2.

- tested.on: Human FXR (NR1H4) (Homo sapiens (Human), UniProt Q96RI1)
- Sequence (Q96RI1 whole entry, the tested form may be a part): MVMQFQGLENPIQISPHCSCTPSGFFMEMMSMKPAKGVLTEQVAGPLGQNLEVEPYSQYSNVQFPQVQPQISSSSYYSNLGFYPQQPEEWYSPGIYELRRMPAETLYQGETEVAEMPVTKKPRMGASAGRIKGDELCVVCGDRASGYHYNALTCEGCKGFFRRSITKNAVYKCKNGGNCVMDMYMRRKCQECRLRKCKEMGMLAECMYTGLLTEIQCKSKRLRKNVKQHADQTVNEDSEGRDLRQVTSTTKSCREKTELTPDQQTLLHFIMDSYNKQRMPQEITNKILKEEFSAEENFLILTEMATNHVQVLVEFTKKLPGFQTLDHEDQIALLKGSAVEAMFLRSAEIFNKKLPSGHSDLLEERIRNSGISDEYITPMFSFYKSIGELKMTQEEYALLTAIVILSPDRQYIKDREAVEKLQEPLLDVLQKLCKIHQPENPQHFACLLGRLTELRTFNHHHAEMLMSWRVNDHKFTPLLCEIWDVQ
- assay: Human FXR (NR1H4) Assay (Gal4 promoter driven luciferase reporter transactivation in CHO cells)
- Type: cell-based
pEC50: −log10 of the molar value.
observable: pEC50

{"molecule": "CC[C@@H]1C2C[C@H](O)CCC2(C)[C@H]2CCC3(C)C([C@H](C)CCC(=O)NS(=O)(=O)c4cccc([N+](=O)[O-])c4)CC[C@H]3[C@@H]2[C@@H]1O (stereo partly shown)", "observable": "pEC50", "measured": "5.00 to 6.00"}

---

- tested.on: UniProt Q96RI1
- assay: Human FXR (NR1H4) Assay (Gal4 promoter driven luciferase reporter transactivation in CHO cells)
- Type: cell-based
- experimental.parameters: FXR agonistic potency range; CHO reporter cells expressing human NR1H4, 22 hours incubation; read-out: EC50
pEC50: −log10 of the molar value.

{"compound": "CCC1C(O)C2C3CCC(C(C)CCC(=O)NS(=O)(=O)C4CC4)C3(C)CCC2C2(C)CCC(O)CC12 (stereo not drawn)", "tested.on": "UniProt Q96RI1", "pEC50": "6.00 to 7.00"}
{"compound": "CCC1C(O)C2C3CCC(C(C)CCC(=O)NS(=O)(=O)N4CCOCC4)C3(C)CCC2C2(C)CCC(O)CC12 (stereo not drawn)", "tested.on": "UniProt Q96RI1", "pEC50": "5.00 to 6.00"}
{"compound": "CC[C@@H]1C2C[C@H](O)CCC2(C)[C@H]2CCC3(C)C([C@H](C)CCC(=O)NS(=O)(=O)c4ccc(Cl)cc4)CC[C@H]3[C@@H]2[C@@H]1O (stereo partly drawn)", "tested.on": "UniProt Q96RI1", "pEC50": "> 7.00"}

---

- tested.on: UniProtKB Q96RI1
- assay: Human FXR (NR1H4) Assay (Gal4 promoter driven luciferase reporter transactivation in CHO cells)
- Format: cell-based
- experimental.parameters: read-out: EC50
pEC50: −log10 of the molar value.

{"compound": "CC[C@H]1[C@@H](O)[C@@H]2[C@H](CC[C@]3(C)[C@@H]([C@H](C)C[C@H](C)C(=O)NS(=O)(=O)c4ccc(C(C)(C)C)cc4)CC[C@@H]23)[C@@]2(C)CC[C@@H](O)C[C@@H]12", "pEC50": "6.00 to 7.00"}
{"compound": "CC[C@@H]1C2C[C@H](O)CCC2(C)[C@H]2CCC3(C)C([C@H](C)CCC(=O)NS(=O)(=O)c4ccc(OC)c(OC)c4)CC[C@H]3[C@@H]2[C@@H]1O (stereo partly drawn)", "pEC50": "6.00 to 7.00"}
{"compound": "CC[C@H]1[C@@H](O)[C@@H]2[C@H](CC[C@]3(C)[C@@H]([C@H](C)C[C@@H](C)C(=O)NS(=O)(=O)c4ccc(C(C)(C)C)cc4)CC[C@@H]23)[C@@]2(C)CC[C@@H](O)C[C@@H]12", "pEC50": "6.00 to 7.00"}
{"compound": "CC[C@@H]1C2C[C@H](O)CCC2(C)[C@H]2CCC3(C)C([C@H](C)CCC(=O)NS(=O)(=O)c4cccs4)CC[C@H]3[C@@H]2[C@@H]1O (stereo partly drawn)", "pEC50": "6.00 to 7.00"}
{"compound": "CC[C@@H]1C2C[C@H](O)CCC2(C)[C@H]2CCC3(C)C([C@H](C)CCC(=O)NS(=O)(=O)c4ccc(C#N)cc4)CC[C@H]3[C@@H]2[C@@H]1O (stereo partly drawn)", "pEC50": "6.00 to 7.00"}
{"compound": "CC[C@@H]1C2C[C@H](O)CCC2(C)[C@H]2CCC3(C)C([C@H](C)CCC(=O)NS(=O)(=O)c4nccs4)CC[C@H]3[C@@H]2[C@@H]1O (stereo partly drawn)", "pEC50": "5.00 to 6.00"}
{"compound": "CC[C@H]1[C@@H](O)[C@@H]2[C@H](CC[C@]3(C)[C@@H]([C@H](C)CCCC(=O)NS(=O)(=O)C4CC4)CC[C@@H]23)[C@@]2(C)CC[C@@H](O)C[C@@H]12", "pEC50": "6.00 to 7.00"}
{"compound": "CC[C@H]1[C@@H](O)[C@@H]2[C@H](CC[C@]3(C)[C@@H]([C@H](C)CCCC(=O)NS(=O)(=O)C4(C)CC4)CC[C@@H]23)[C@@]2(C)CC[C@@H](O)C[C@@H]12", "pEC50": "6.00 to 7.00"}
{"compound": "CC[C@@H]1C2C[C@H](O)CCC2(C)[C@H]2CCC3(C)C([C@H](C)CCC(=O)NS(=O)(=O)c4ccncc4)CC[C@H]3[C@@H]2[C@@H]1O (stereo partly drawn)", "pEC50": "5.00 to 6.00"}
{"compound": "CC[C@@H]1C2C[C@H](O)CCC2(C)[C@H]2CCC3(C)C([C@H](C)CCC(=O)NS(=O)(=O)c4ccccn4)CC[C@H]3[C@@H]2[C@@H]1O (stereo partly drawn)", "pEC50": "6.00 to 7.00"}
{"compound": "CC[C@@H]1C2C[C@H](O)CCC2(C)[C@H]2CCC3(C)C([C@H](C)CCC(=O)NS(=O)(=O)c4cnccn4)CC[C@H]3[C@@H]2[C@@H]1O (stereo partly drawn)", "pEC50": "5.00 to 6.00"}
{"compound": "CC[C@H]1[C@@H](O)[C@@H]2[C@H](CC[C@]3(C)[C@@H]([C@H](C)CCC(=O)N(C)S(=O)(=O)c4ccccc4)CC[C@@H]23)[C@@]2(C)CC[C@@H](O)C[C@@H]12", "pEC50": "5.00 to 6.00"}
{"compound": "CC[C@@H]1C2C[C@H](O)CCC2(C)[C@H]2CCC3(C)C([C@H](C)CCC(=O)NS(=O)(=O)c4cccnc4)CC[C@H]3[C@@H]2[C@@H]1O (stereo partly drawn)", "pEC50": "5.00 to 6.00"}
{"compound": "CC[C@@H]1C2C[C@H](O)CCC2(C)[C@H]2CCC3(C)C([C@H](C)CCC(=O)NS(=O)(=O)c4ccccc4Cl)CC[C@H]3[C@@H]2[C@@H]1O (stereo partly drawn)", "pEC50": "6.00 to 7.00"}
{"compound": "CC[C@@H]1C2C[C@H](O)CCC2(C)[C@H]2CCC3(C)C([C@H](C)CCC(=O)NS(=O)(=O)c4ccc([N+](=O)[O-])cc4)CC[C@H]3[C@@H]2[C@@H]1O (stereo partly drawn)", "pEC50": "6.00 to 7.00"}
{"compound": "CC[C@@H]1C2C[C@H](O)CCC2(C)[C@H]2CCC3(C)C([C@H](C)CCC(=O)NS(=O)(=O)c4ccccc4C(F)(F)F)CC[C@H]3[C@@H]2[C@@H]1O (stereo partly drawn)", "pEC50": "6.00 to 7.00"}
{"compound": "CC[C@@H]1C2C[C@H](O)CCC2(C)[C@H]2CCC3(C)C([C@H](C)CCC(=O)NS(=O)(=O)c4cccc5ncccc45)CC[C@H]3[C@@H]2[C@@H]1O (stereo partly drawn)", "pEC50": "6.00 to 7.00"}
{"compound": "CC[C@@H]1C2C[C@H](O)CCC2(C)[C@H]2CCC3(C)C([C@H](C)CCC(=O)NS(=O)(=O)c4ccc(F)cc4)CC[C@H]3[C@@H]2[C@@H]1O (stereo partly drawn)", "pEC50": "6.00 to 7.00"}
{"compound": "CC[C@H]1[C@@H](O)[C@@H]2[C@H](CC[C@]3(C)[C@@H]([C@H](C)C[C@@H](C)C(=O)NS(=O)(=O)C4CC4)CC[C@@H]23)[C@@]2(C)CC[C@@H](O)C[C@@H]12", "pEC50": "6.00 to 7.00"}
{"compound": "CC[C@H]1[C@@H](O)[C@@H]2[C@H](CC[C@]3(C)[C@@H]([C@H](C)CCC(=O)NS(C)(=O)=O)CC[C@@H]23)[C@@]2(C)CC[C@@H](O)C[C@@H]12", "pEC50": "6.00 to 7.00"}
{"compound": "CC[C@@H]1C2C[C@H](O)CCC2(C)[C@H]2CCC3(C)C([C@H](C)CCC(=O)NS(=O)(=O)c4cc(F)cc(F)c4)CC[C@H]3[C@@H]2[C@@H]1O (stereo partly drawn)", "pEC50": "6.00 to 7.00"}
